Test target: α4β2 nAChR (Rattus norvegicus, UniProt P09483+P12390)
Construct: made in house; host or cells: Sf9 insect cells infected with each recombinant baculovirus stock; membrane preparation
Sequence (P09483 31-630): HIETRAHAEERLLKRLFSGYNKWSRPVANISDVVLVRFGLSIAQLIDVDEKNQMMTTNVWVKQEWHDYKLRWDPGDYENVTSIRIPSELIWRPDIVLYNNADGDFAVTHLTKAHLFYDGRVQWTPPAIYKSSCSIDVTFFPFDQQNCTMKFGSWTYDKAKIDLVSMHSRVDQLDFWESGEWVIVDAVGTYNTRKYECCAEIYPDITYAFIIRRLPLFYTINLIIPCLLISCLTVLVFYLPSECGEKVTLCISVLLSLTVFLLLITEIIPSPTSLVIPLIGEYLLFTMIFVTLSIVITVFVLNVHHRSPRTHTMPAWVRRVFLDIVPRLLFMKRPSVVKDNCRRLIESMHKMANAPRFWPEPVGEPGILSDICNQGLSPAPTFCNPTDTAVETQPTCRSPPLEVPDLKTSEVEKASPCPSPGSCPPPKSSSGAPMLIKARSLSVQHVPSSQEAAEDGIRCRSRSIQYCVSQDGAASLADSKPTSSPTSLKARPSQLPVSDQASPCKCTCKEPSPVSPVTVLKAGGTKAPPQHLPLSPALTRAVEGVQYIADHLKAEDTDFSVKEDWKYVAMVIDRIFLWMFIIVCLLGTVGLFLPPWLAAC
Sequence (P12390 25-500): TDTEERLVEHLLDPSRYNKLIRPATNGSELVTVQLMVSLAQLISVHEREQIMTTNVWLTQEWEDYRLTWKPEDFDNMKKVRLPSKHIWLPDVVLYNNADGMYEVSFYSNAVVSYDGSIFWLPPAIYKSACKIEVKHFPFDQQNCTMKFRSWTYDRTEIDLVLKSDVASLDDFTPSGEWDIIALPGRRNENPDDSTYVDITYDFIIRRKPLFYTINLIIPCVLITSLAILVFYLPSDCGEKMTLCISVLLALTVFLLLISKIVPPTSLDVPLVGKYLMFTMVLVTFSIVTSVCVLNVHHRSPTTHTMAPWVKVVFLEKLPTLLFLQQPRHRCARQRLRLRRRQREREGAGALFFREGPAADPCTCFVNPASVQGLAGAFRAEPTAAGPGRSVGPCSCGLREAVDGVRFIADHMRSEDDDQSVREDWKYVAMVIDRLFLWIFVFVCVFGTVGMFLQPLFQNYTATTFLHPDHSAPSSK
Test summary: Inhibition of [3H](-)-nicotine binding to recombinant α4β2 nAChR
Assay conditions: 1 nM [3H]nicotine, 30 min, 22° C., Sf9 cell membranes; means ± standard deviations, four determinations; read-out: Inhibition of [3H](-)-nicotine binding to α4β2 nAChR IC50
Classes (IC50): low class: < 4 nM; middle class: ≥ 4 nM and < 10 nM; high class: ≥ 10 nM

Q. Class for N=C1NCCCCN1Cc1ccc(Cl)nc1 [Compound 2] ?
A. low class

Q. Class for Clc1ccc(CN2CCC2)cn1 [Compound 12, 1-(6-Chloro-3-pyridinyl)methylazetidine] ?
A. high class

Q. Class for N=C1SCCCN1Cc1ccc(Cl)nc1 [Compound 4] ?
A. high class

Q. Class for N=C1CCCN1Cc1ccc(Cl)nc1 [Compound 5] ?
A. low class

Q. Class for N=C1CCCCN1Cc1ccc(Cl)nc1 [Compound 6] ?
A. high class

Q. Class for N=C1OCCN1Cc1ccc(Cl)nc1 [Compound 7] ?
A. middle class

Q. Class for N=c1sccn1Cc1ccc(Cl)nc1 [Compound 9] ?
A. low class

Q. Class for N=C1SCCN1Cc1ccc(Cl)nc1 [Compound 3] ?
A. low class

Q. Class for Clc1ccc(CN2CCCC2)cn1 [Compound 13] ?
A. middle class

Q. Class for N=c1[nH]ccn1Cc1ccc(Cl)nc1 [Compound 8] ?
A. high class

Q. Class for Clc1ccc(CN2CCCCC2)cn1 [Compound 14] ?
A. high class
